tested on: SNB-19 CNS; test: NCI tumour cell line growth inhibition, 48 h

{"columns": ["compound", "TGI"],
 "data": [
  ["CC1(Cl)CCC2(CC(Br)=CC3OC32C)CC1Br (stereo unspecified)", "> 100 µM"],
  ["CC(=O)O[C@]1(C(C)=O)CC[C@H]2[C@@H]3C=C(C)C4=CC(=O)CC[C@]4(C)[C@H]3CC[C@@]21C", "> 100 µM"],
  ["COc1ccc(OC)c(CC2CCc3nc(N)nc(N)c3C2)c1 (stereo unspecified)", "> 81.8 µM"],
  ["CCc1ccc2nc(-c3ccc(O)cc3)sc2c1", "35.5 µM"],
  ["COc1cc2c(cc1C)NC(=O)/C2=C\\c1cccc(Oc2ccccc2)c1", "28.1 µM"],
  ["O=C(Cc1nccc2c1[nH]c1ccccc12)OC1C#CCSCC#C/C=C\\1 (stereo unspecified)", "> 100 µM"],
  ["CCOC(=O)c1c(N2CCCC2)[nH]c(=O)c(C(c2ccco2)c2c(O)c(C(=O)OCC)c(N3CCCC3)[nH]c2=O)c1O", "> 100 µM"],
  ["COc1cc(C2C(C(=O)O)=C(COC(C)=O)Oc3cc4c(cc32)OCO4)cc(OC)c1OC (stereo unspecified)", "> 100 µM"],
  ["N#Cc1c(N)nc(N2CCOCC2)c(C#N)c1-c1cccnc1", "> 100 µM"],
  ["Cn1/c(=N\\S(=O)(=O)c2ccccc2)n(S(=O)(=O)c2ccccc2)c2ccccc21", "> 100 µM"],
  ["CC(C)C(C)C(C)(C)P(C)(C)=O (stereo unspecified)", "> 100 µM"],
  ["Cc1ccc(-n2[nH]nc(C#N)c2=O)cc1", "> 100 µM"],
  ["Cc1cc(NC[C@H](O)[C@H](O)[C@H](O)CO)c(Sc2cc(=O)[nH]c(=O)[nH]2)cc1C", "> 62.5 µM"],
  ["Nc1nc(-c2ccc(F)cc2)c(-c2ccc3ncccc3n2)s1", "> 25 µM"],
  ["Oc1[nH]c2ccc(Cl)cc2c1/C=c1/ccc2c(c1)N=C(c1ccc(F)cc1)N=2", "5.14 µM"],
  ["CC(=O)O[C@@H]1C2=C(C)C=C(O2)[C@H]2O[C@]2(C)C[C@H]2C=C(C(=O)O2)[C@H](OC(C)=O)CC1[C@@]1(C)CO1 (stereo partly specified)", "> 100 µM"],
  ["Nc1nc(Cl)cc(NCCC2(CO)CCC2)n1", "> 100 µM"],
  ["CCCCS(=O)(=O)CCC(N)C(=O)O (stereo unspecified)", "> 100 µM"],
  ["CS(=O)(=O)N(N(CCCl)S(=O)(=O)c1ccccc1)S(C)(=O)=O", "> 100 µM"],
  ["CCC1CN2CCc3c([nH]c4ccccc34)C2C[C@@H]1CC(=O)N(C)C (stereo partly specified)", "> 100 µM"],
  ["CCn1cc(C(=O)O)c(=O)c2cc3c(cc21)S(=O)(=O)CC3", "> 100 µM"],
  ["COc1ccc(OC)c(/C=C(/C)[N+](=O)[O-])c1", "23.3 µM"],
  ["C#CC1(O)C(COP(=O)(O)OCC2OC(n3ccc(NCCCCCCCCCCCCCCCCCC)nc3=O)C(O)C2O)OC(n2ccc(N)nc2=O)C1O (stereo unspecified)", "40.6 µM"],
  ["Cc1cc(C)nc(SC(C)C(=O)N/N=C/c2ccc(OCc3ccccc3)cc2)n1 (stereo unspecified)", "> 100 µM"],
  ["N#C/C(=C\\NC(=S)c1ccncc1)c1nc2ccccc2s1", "> 100 µM"],
  ["CN1c2ccccc2C(C)(C)C12C=Cc1cc(O)ccc1O2 (stereo unspecified)", "8.46 µM"],
  ["Cc1cccnc1/N=C/c1c(O)n(C)c(=O)[nH]c1=O", "> 100 µM"],
  ["C1CCN(c2nc(=[N+]3CCCCC3)ss2)CC1", "> 100 µM"],
  ["CCOC(=O)C(Cl)(NC(=O)c1c(F)c(F)c(F)c(F)c1F)C(F)(F)F (stereo unspecified)", "> 100 µM"],
  ["CN1C(=O)[C@@H]2[C@@H]3c4ccccc4N(S(=O)(=O)C(F)(F)F)[C@@H]3c3[nH]c4ccccc4c3[C@@H]2C1=O", "> 100 µM"],
  ["CC1C[C@@H]2C(=O)NC(=O)[C@@H]2c2c1c1ccccc1n2C (stereo partly specified)", "> 100 µM"],
  ["CC(C)[Si](OC1=CCC[C@H]2NC(=O)[C@@H](Cc3ccccc3)[C@@]12C)(C(C)C)C(C)C", "22.5 µM"],
  ["CCN1CCN(c2nc3ccc([N+](=O)[O-])cc3nc2C(=O)c2ccccc2)CC1", "71.2 µM"],
  ["CCN(C(=O)c1cc(F)ccc1Oc1cncnc1N1CC2(CCN(CC3CCC(NS(=O)(=O)CC)CC3)CC2)C1)C(C)C (stereo unspecified)", "> 100 µM"],
  ["Fc1ccc2nc3n(c2c1)C(c1c(Cl)cccc1Cl)SC3 (stereo unspecified)", "> 100 µM"],
  ["O=C(CCC(=O)C(C(=O)c1ccccc1)c1ccccc1)Nc1cccc(C(F)(F)F)c1 (stereo unspecified)", "> 100 µM"],
  ["N#CCCC1(CCC#N)CCCCCCCCC(CCC#N)(CCC#N)C(=O)C1=O", "> 100 µM"],
  ["O=C1/C(=C/c2cccc(Br)c2)CSC/C1=C\\c1cccc(Br)c1", "10.6 µM"],
  ["O=C1C2C3C=CC(C2C(=O)N1COP(=O)(O)O)C1C2C(=O)N(COP(=O)(O)O)C(=O)C2C31 (stereo unspecified)", "> 100 µM"],
  ["COC1OC(COCc2ccc(Cl)cc2)C(OCc2ccc(Cl)cc2)C1N=[N+]=[N-] (stereo unspecified)", "> 100 µM"],
  ["CNC(=O)N(C)COC", "> 100 µM"]
]}
